- Protocol: protein stability index of a GFP-peptide fusion (yeast GPS) (PSI 1-4); higher = more stable; sorted into four equal gates, so the index is relative within each strain
- Condition Details: san1∆
Quantity: protein stability index

Some solved entries appear below for comparison.
Biosequence	protein stability index
KDILVKTGITKKDEDEE [PRE9]	2.58
AMHNSKAASSTRIFQAL [POP1]	2.87
VNGSITDQLIQNIETRQ [NUT1]	3.05
LSIQYMIQKVMEYLKSS [RPN5]	1.59
KLVLNISVGESGDRLTR [RPL11A]	2.6
QRIIKELSIRFPQYKLT [ARP7]	2.12

Take each entry in turn and give its protein stability index.
1. VNARDIPPLNKSLAMEH [CSN12]
2. KIKFDESSKLMTVTKVS [BRR2]

Result:
[2.61, 1.5]
